These measurements were taken from patent US20230270713A1.

test: Pharmacokinetic/toxicokinetic profile of RTX after intravesical instillation in dogs; type: in vivo, dog; settings: male, dog, plasma, other: intravesical instillation, 250 mcg, male dogs 1003, 1005 individual, 250 mcg intravesical, 0.5 h; read-out: Plasma concentration of RTX

{"columns": ["chemical_structure", "concentration at 0.5 h, ng/mL"],
 "data": [
  ["C=C(C)[C@]12C[C@@H](C)[C@@]34O[C@](Cc5ccccc5)(O[C@@H]1[C@@H]3C=C(COC(=O)Cc1ccc(O)c(OC)c1)C[C@]1(O)C(=O)C(C)=C[C@@H]41)O2", 0.257]
]}

====

experiment: Pharmacokinetic/toxicokinetic profile of RTX after intravesical instillation in dogs; format: in vivo, dog; conditions: male, dog, plasma, other: intravesical instillation, 250 ug, male dogs, 250 mcg intravesical; read-out: Tmax, Mean
assay_endpoint: Tmax

{"columns": ["compound", "assay_value"],
 "data": [
  ["C=C(C)[C@]12C[C@@H](C)[C@@]34O[C@](Cc5ccccc5)(O[C@@H]1[C@@H]3C=C(COC(=O)Cc1ccc(O)c(OC)c1)C[C@]1(O)C(=O)C(C)=C[C@@H]41)O2 [RTX, resiniferatoxin]", "45 min"]
]}

====

assay: Pharmacokinetic/toxicokinetic profile of RTX after intravesical instillation in dogs; format: in vivo, dog; conditions: female, dog, plasma, other: intravesical instillation, 250 ug, female dogs, 250 mcg intravesical; read-out: Cmax, Mean

{"columns": ["chemical_structure", "unit_of_measurement", "Cmax"],
 "data": [
  ["C=C(C)[C@]12C[C@@H](C)[C@@]34O[C@](Cc5ccccc5)(O[C@@H]1[C@@H]3C=C(COC(=O)Cc1ccc(O)c(OC)c1)C[C@]1(O)C(=O)C(C)=C[C@@H]41)O2", "ng/mL", 0.274]
]}

====

test: Pharmacokinetic/toxicokinetic profile of RTX after intravesical instillation in dogs; format: in vivo, dog; settings: female, dog, plasma, other: intravesical instillation, 250 mcg, female dogs, 250 mcg intravesical, 6 h; read-out: Plasma concentration of RTX, Mean
assay_endpoint: concentration at 6 h

{"columns": ["chemical_structure", "assay_value"],
 "data": [
  ["C=C(C)[C@]12C[C@@H](C)[C@@]34O[C@](Cc5ccccc5)(O[C@@H]1[C@@H]3C=C(COC(=O)Cc1ccc(O)c(OC)c1)C[C@]1(O)C(=O)C(C)=C[C@@H]41)O2", "0 ng/mL"]
]}

====

experiment: Pharmacokinetic/toxicokinetic profile of RTX after intravesical instillation in dogs; format: in vivo, dog; settings: female, dog, plasma, other: intravesical instillation, 250 mcg, female dogs, 250 mcg intravesical, 48 h; read-out: Plasma concentration of RTX, Mean

{"columns": ["chemical_structure", "concentration at 48 h (ng/mL)"],
 "data": [
  ["C=C(C)[C@]12C[C@@H](C)[C@@]34O[C@](Cc5ccccc5)(O[C@@H]1[C@@H]3C=C(COC(=O)Cc1ccc(O)c(OC)c1)C[C@]1(O)C(=O)C(C)=C[C@@H]41)O2", 0]
]}

====

assay: Pharmacokinetic/toxicokinetic profile of RTX after intravesical instillation in dogs; format: in vivo, dog; conditions: female, dog, plasma, other: intravesical instillation into the urinary bladder, 250 mcg, female dogs 1004, 1006 individual, 250 mcg intravesical, 72 h; read-out: Plasma concentration of RTX
assay_endpoint: concentration at 72 h (ng/mL)

{"columns": ["chemical_structure", "assay_endpoint", "unit_of_measurement", "assay_value"],
 "data": [
  ["C=C(C)[C@]12C[C@@H](C)[C@@]34O[C@](Cc5ccccc5)(O[C@@H]1[C@@H]3C=C(COC(=O)Cc1ccc(O)c(OC)c1)C[C@]1(O)C(=O)C(C)=C[C@@H]41)O2", "concentration at 72 h", "ng/mL", 0]
]}
